Readings of Ki for the listed compounds
- targetOrTestSystem: JAK3 (Homo sapiens, UniProt P52333)
- Sequence (P52333 1-1124): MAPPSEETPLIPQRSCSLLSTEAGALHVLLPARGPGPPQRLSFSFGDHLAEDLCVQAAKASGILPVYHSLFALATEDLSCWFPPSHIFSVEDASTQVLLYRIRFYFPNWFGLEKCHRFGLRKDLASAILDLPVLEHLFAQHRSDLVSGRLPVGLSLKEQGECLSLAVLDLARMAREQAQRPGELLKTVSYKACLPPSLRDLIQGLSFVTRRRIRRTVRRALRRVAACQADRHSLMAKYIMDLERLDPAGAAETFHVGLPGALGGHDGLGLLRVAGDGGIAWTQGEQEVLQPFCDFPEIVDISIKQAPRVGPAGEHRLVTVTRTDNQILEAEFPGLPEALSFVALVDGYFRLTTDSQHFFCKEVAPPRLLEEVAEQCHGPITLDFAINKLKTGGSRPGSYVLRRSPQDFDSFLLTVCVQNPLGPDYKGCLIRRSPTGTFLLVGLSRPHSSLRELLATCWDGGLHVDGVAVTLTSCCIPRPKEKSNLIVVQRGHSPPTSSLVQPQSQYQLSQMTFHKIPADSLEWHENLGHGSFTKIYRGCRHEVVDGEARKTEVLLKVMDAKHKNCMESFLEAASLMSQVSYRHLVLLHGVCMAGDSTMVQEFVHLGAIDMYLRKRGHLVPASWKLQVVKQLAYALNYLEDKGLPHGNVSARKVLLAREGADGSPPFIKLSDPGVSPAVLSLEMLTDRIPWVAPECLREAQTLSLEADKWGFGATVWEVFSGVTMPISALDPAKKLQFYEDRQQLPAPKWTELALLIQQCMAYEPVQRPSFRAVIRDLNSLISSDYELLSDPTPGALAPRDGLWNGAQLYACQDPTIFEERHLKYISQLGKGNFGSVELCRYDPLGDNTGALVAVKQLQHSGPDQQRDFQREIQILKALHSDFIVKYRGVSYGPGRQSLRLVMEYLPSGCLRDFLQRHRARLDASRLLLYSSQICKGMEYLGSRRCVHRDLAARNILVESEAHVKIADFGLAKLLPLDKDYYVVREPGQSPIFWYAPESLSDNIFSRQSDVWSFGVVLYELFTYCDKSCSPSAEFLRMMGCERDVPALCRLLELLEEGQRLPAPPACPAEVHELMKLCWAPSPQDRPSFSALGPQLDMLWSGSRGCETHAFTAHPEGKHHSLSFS
- measurementProtocol: JAK3 inhibition assay (33P incorporation into poly(Glu)4Tyr)
- Type: biochemical
- testConditions: Table 6; enzyme inhibition data (Ki)

Example cases with answers are listed next.
smilesRecord | Ki
FC(F)(F)Oc1ccccc1-c1ccnc2[nH]ccc12 | 500 to 5000 nM
CNC(=O)c1ccc(-c2ccnc3[nH]ccc23)cc1 | < 500 nM
Cc1ccc(-c2c(Cl)cnc3[nH]ccc23)s1 | < 500 nM

I'd like to know its Ki. The compound in question is "NC(=O)c1ccccc1-c1ccnc2[nH]ccc12"
> 5000 nM

I'd like to know its Ki. The compound in question is "Clc1ccc(-c2c(Cl)cnc3[nH]ccc23)s1"
< 500 nM

I'd like to know its Ki. The compound in question is "CCCOC(=O)N1CC[C@@H](Nc2c(Cl)cnc3[nH]ccc23)C1"
< 500 nM

I'd like to know its Ki. The compound in question is "CCCCN(CCC#N)C(=O)c1ccc(-c2ccnc3[nH]ccc23)s1"
< 500 nM

I'd like to know its Ki. The compound in question is "N#CCCN(Cc1ccccc1)C(=O)c1ccc(-c2ccnc3[nH]ccc23)s1"
< 500 nM

I'd like to know its Ki. The compound in question is "CC[C@@H](C)NC(=O)c1cc(-c2ccnc3[nH]ccc23)c[nH]1"
< 500 nM
